Tested on: MDA-MB-231 multicell spheroids, viability
Experiment: Anticancer human tumor MDA-MB-231 cell line growth inhibition [PI3K];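 further: spheroids exposed to agents for seven days before reading; percent of vehicle control luminescence with DMSO treated spheroids as 100%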
Conditions: second compound 0.316 µM; first compound 0.1 µM; hits give low values
ENDPOINT: viability, T/C (%)
The figure you give is taken to be in %; do not add the unit.

Param item = Cn1ncc(Cl)c1-c1cc(C(=O)NC(CN)Cc2cccc(F)c2)sc1Cl (stereo not given) + COc1c(OCCCN2CCOCC2)ccc2c3n(c(=NC(=O)c4cnc(N)nc4)nc12)CCN3 ; retrieve measured viability, T/C.
33.6

Param item = CNC(=O)c1ccc(N2C(=S)N(c3ccc(C#N)c(C(F)(F)F)c3)C(=O)C2(C)C)cc1F + COc1c(OCCCN2CCOCC2)ccc2c3n(c(=NC(=O)c4cnc(N)nc4)nc12)CCN3 ; retrieve measured viability, T/C.
34.4

Param item = CCN1CCN(Cc2ccc(Nc3ncc(F)c(-c4cc(F)c5nc(C)n(C(C)C)c5c4)n3)nc2)CC1 + Cc1nc(NC(=O)N2CCCC2C(N)=O)sc1-c1ccnc(C(C)(C)C(F)(F)F)c1 ; retrieve measured viability, T/C.
40.9

Param item = C=CC(=O)N1CCN(c2nc(=O)n(-c3c(C)ccnc3C(C)C)c3nc(-c4c(O)cccc4F)c(F)cc23)C(C)C1 (stereo not given) + CC(Nc1ncnc2nc[nH]c12)c1cc2cccc(Cl)c2c(=O)n1-c1ccccc1 ; retrieve measured viability, T/C.
98.7

Param item = CC1(C)CCC(CN2CCN(c3ccc(C(=O)NS(=O)(=O)c4ccc(NCC5CCOCC5)c([N+](=O)[O-])c4)c(Oc4cnc5[nH]ccc5c4)c3)CC2)=C(c2ccc(Cl)cc2)C1 + COc1c(OCCCN2CCOCC2)ccc2c3n(c(=NC(=O)c4cnc(N)nc4)nc12)CCN3 ; retrieve measured viability, T/C.
34.8

====

Give measured viability, T/C for each item. Keep answers brief.
Tested on: MDA-MB-231 multicell spheroids, viability
Experiment: Anticancer human tumor MDA-MB-231 cell line growth inhibition [PI3K];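 further: spheroids exposed to agents for seven days before reading; percent of vehicle control luminescence with DMSO treated spheroids as 100%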
Conditions: second compound 0.1 µM; first compound 10 µM; hits give low values

Param item = C#Cc1c(F)ccc2cc(O)cc(-c3ncc4c(N5CC6CCC(C5)N6)nc(OCC56CCCN5CC(F)C6)nc4c3F)c12 (stereo unspecified) + CC(Nc1ncnc2nc[nH]c12)c1cc2cccc(Cl)c2c(=O)n1-c1ccccc1 ; retrieve measured viability, T/C.
57.7%

Param item = C[C@@H](NC(=O)c1ncnc(N)c1Cl)c1ncc(C(=O)Nc2cc(C(F)(F)F)c(Cl)cn2)s1 + COc1c(OCCCN2CCOCC2)ccc2c3n(c(=NC(=O)c4cnc(N)nc4)nc12)CCN3 ; retrieve measured viability, T/C.
28.3%

Param item = C=CC(=O)N1CCN(c2nc(=O)n(-c3c(C)ccnc3C(C)C)c3nc(-c4c(O)cccc4F)c(F)cc23)C(C)C1 (stereo unspecified) + CC(Nc1ccc2c(c1)OCCn1cc(N3C(=O)OCC3C(F)F)nc1-2)C(N)=O ; retrieve measured viability, T/C.
59.3%

Param item = CNC(=O)c1ccc(N2C(=S)N(c3ccc(C#N)c(C(F)(F)F)c3)C(=O)C2(C)C)cc1F + Cc1nc(NC(=O)N2CCCC2C(N)=O)sc1-c1ccnc(C(C)(C)C(F)(F)F)c1 ; retrieve measured viability, T/C.
57.1%

Param item = C=CC(=O)N1CCN(c2nc(=O)n(-c3c(C)ccnc3C(C)C)c3nc(-c4c(O)cccc4F)c(F)cc23)C(C)C1 (stereo unspecified) + Cc1nc(NC(=O)N2CCCC2C(N)=O)sc1-c1ccnc(C(C)(C)C(F)(F)F)c1 ; retrieve measured viability, T/C.
88.4%

Param item = CNC(=O)c1ccc(N2C(=S)N(c3ccc(C#N)c(C(F)(F)F)c3)C(=O)C2(C)C)cc1F + CC(Nc1ncnc2nc[nH]c12)c1cc2cccc(Cl)c2c(=O)n1-c1ccccc1 ; retrieve measured viability, T/C.
79.9%

Param item = C#Cc1c(F)ccc2cc(O)cc(-c3ncc4c(N5CC6CCC(C5)N6)nc(OCC56CCCN5CC(F)C6)nc4c3F)c12 (stereo unspecified) + Cc1nc(NC(=O)N2CCCC2C(N)=O)sc1-c1ccnc(C(C)(C)C(F)(F)F)c1 ; retrieve measured viability, T/C.
45.2%

Param item = CCCS(=O)(=O)Nc1ccc(F)c(C(=O)c2c[nH]c3ncc(-c4ccc(Cl)cc4)cc23)c1F + COc1c(OCCCN2CCOCC2)ccc2c3n(c(=NC(=O)c4cnc(N)nc4)nc12)CCN3 ; retrieve measured viability, T/C.
20.9%

Param item = CC1(C)CCC(Nc2ncc(C(F)(F)F)c(-c3c[nH]c4c(P(C)(C)=O)c(C#N)ccc34)n2)CN1 (stereo unspecified) + CC(Nc1ccc2c(c1)OCCn1cc(N3C(=O)OCC3C(F)F)nc1-2)C(N)=O ; retrieve measured viability, T/C.
2.99%

Param item = CC(Cn1ccc(-c2ccc(C#N)c(Cl)c2)n1)NC(=O)c1cc(C(C)O)[nH]n1 (stereo unspecified) + CC(Nc1ccc2c(c1)OCCn1cc(N3C(=O)OCC3C(F)F)nc1-2)C(N)=O ; retrieve measured viability, T/C.
50.3%

Param item = Cn1ncc(Cl)c1-c1cc(C(=O)NC(CN)Cc2cccc(F)c2)sc1Cl (stereo unspecified) + Cc1nc(NC(=O)N2CCCC2C(N)=O)sc1-c1ccnc(C(C)(C)C(F)(F)F)c1 ; retrieve measured viability, T/C.
24.4%

====

Test system: MDA-MB-231 multicell spheroids, viability
Assay: Anticancer human tumor MDA-MB-231 cell line growth inhibition [PI3K];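 further: spheroids exposed to agents for seven days before reading; percent of vehicle control luminescence with DMSO treated spheroids as 100%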
Details: second compound 1 µM; first compound 1 µM; hits give low values
Give measured viability, T/C for each item. Keep answers brief.

Reported viability, T/C for MDA-MB-231 multicell spheroids, viability, given CC1(C)CCC(Nc2ncc(C(F)(F)F)c(-c3c[nH]c4c(P(C)(C)=O)c(C#N)ccc34)n2)CN1 (stereo not given) + CC(Nc1ncnc2nc[nH]c12)c1cc2cccc(Cl)c2c(=O)n1-c1ccccc1 ?
49.4%

Reported viability, T/C for MDA-MB-231 multicell spheroids, viability, given Cn1ncc(Cl)c1-c1cc(C(=O)NC(CN)Cc2cccc(F)c2)sc1Cl (stereo not given) + Cc1nc(NC(=O)N2CCCC2C(N)=O)sc1-c1ccnc(C(C)(C)C(F)(F)F)c1 ?
57%

Reported viability, T/C for MDA-MB-231 multicell spheroids, viability, given CCCS(=O)(=O)Nc1ccc(F)c(C(=O)c2c[nH]c3ncc(-c4ccc(Cl)cc4)cc23)c1F + CC(Nc1ccc2c(c1)OCCn1cc(N3C(=O)OCC3C(F)F)nc1-2)C(N)=O ?
51%

Reported viability, T/C for MDA-MB-231 multicell spheroids, viability, given CC(C)NCC(C(=O)N1CCN(c2ncnc3c2C(C)CC3O)CC1)c1ccc(Cl)cc1 (stereo not given) + Cc1nc(NC(=O)N2CCCC2C(N)=O)sc1-c1ccnc(C(C)(C)C(F)(F)F)c1 ?
60.4%

Reported viability, T/C for MDA-MB-231 multicell spheroids, viability, given C=CC(=O)N1CCN(c2nc(=O)n(-c3c(C)ccnc3C(C)C)c3nc(-c4c(O)cccc4F)c(F)cc23)C(C)C1 (stereo not given) + COc1c(OCCCN2CCOCC2)ccc2c3n(c(=NC(=O)c4cnc(N)nc4)nc12)CCN3 ?
26.3%

Reported viability, T/C for MDA-MB-231 multicell spheroids, viability, given CC1(C)CCC(CN2CCN(c3ccc(C(=O)NS(=O)(=O)c4ccc(NCC5CCOCC5)c([N+](=O)[O-])c4)c(Oc4cnc5[nH]ccc5c4)c3)CC2)=C(c2ccc(Cl)cc2)C1 + Cc1nc(NC(=O)N2CCCC2C(N)=O)sc1-c1ccnc(C(C)(C)C(F)(F)F)c1 ?
73.4%

Reported viability, T/C for MDA-MB-231 multicell spheroids, viability, given CC(Cn1ccc(-c2ccc(C#N)c(Cl)c2)n1)NC(=O)c1cc(C(C)O)[nH]n1 (stereo not given) + CC(Nc1ccc2c(c1)OCCn1cc(N3C(=O)OCC3C(F)F)nc1-2)C(N)=O ?
60.2%

Reported viability, T/C for MDA-MB-231 multicell spheroids, viability, given Cn1nccc1Nc1nccc(-c2ccn(C(CO)c3ccc(Cl)c(F)c3)c(=O)c2)n1 (stereo not given) + CC(Nc1ccc2c(c1)OCCn1cc(N3C(=O)OCC3C(F)F)nc1-2)C(N)=O ?
36.1%

Reported viability, T/C for MDA-MB-231 multicell spheroids, viability, given C#Cc1c(F)ccc2cc(O)cc(-c3ncc4c(N5CC6CCC(C5)N6)nc(OCC56CCCN5CC(F)C6)nc4c3F)c12 (stereo not given) + COc1c(OCCCN2CCOCC2)ccc2c3n(c(=NC(=O)c4cnc(N)nc4)nc12)CCN3 ?
16.8%

Reported viability, T/C for MDA-MB-231 multicell spheroids, viability, given Cn1ncc(Cl)c1-c1cc(C(=O)NC(CN)Cc2cccc(F)c2)sc1Cl (stereo not given) + COc1c(OCCCN2CCOCC2)ccc2c3n(c(=NC(=O)c4cnc(N)nc4)nc12)CCN3 ?
23.4%

Reported viability, T/C for MDA-MB-231 multicell spheroids, viability, given Cn1ncc(Cl)c1-c1cc(C(=O)NC(CN)Cc2cccc(F)c2)sc1Cl (stereo not given) + CC(Nc1ccc2c(c1)OCCn1cc(N3C(=O)OCC3C(F)F)nc1-2)C(N)=O ?
46.8%

Reported viability, T/C for MDA-MB-231 multicell spheroids, viability, given CNC(=O)c1ccc(N2C(=S)N(c3ccc(C#N)c(C(F)(F)F)c3)C(=O)C2(C)C)cc1F + CC(Nc1ccc2c(c1)OCCn1cc(N3C(=O)OCC3C(F)F)nc1-2)C(N)=O ?
60.4%

Reported viability, T/C for MDA-MB-231 multicell spheroids, viability, given C[C@@H](NC(=O)c1ncnc(N)c1Cl)c1ncc(C(=O)Nc2cc(C(F)(F)F)c(Cl)cn2)s1 + CC(Nc1ncnc2nc[nH]c12)c1cc2cccc(Cl)c2c(=O)n1-c1ccccc1 ?
73.8%

Reported viability, T/C for MDA-MB-231 multicell spheroids, viability, given CC1(C)CCC(CN2CCN(c3ccc(C(=O)NS(=O)(=O)c4ccc(NCC5CCOCC5)c([N+](=O)[O-])c4)c(Oc4cnc5[nH]ccc5c4)c3)CC2)=C(c2ccc(Cl)cc2)C1 + CC(Nc1ncnc2nc[nH]c12)c1cc2cccc(Cl)c2c(=O)n1-c1ccccc1 ?
92.4%

Reported viability, T/C for MDA-MB-231 multicell spheroids, viability, given C[C@@H](NC(=O)c1ncnc(N)c1Cl)c1ncc(C(=O)Nc2cc(C(F)(F)F)c(Cl)cn2)s1 + Cc1nc(NC(=O)N2CCCC2C(N)=O)sc1-c1ccnc(C(C)(C)C(F)(F)F)c1 ?
44.8%

Reported viability, T/C for MDA-MB-231 multicell spheroids, viability, given CC(C)NCC(C(=O)N1CCN(c2ncnc3c2C(C)CC3O)CC1)c1ccc(Cl)cc1 (stereo not given) + COc1c(OCCCN2CCOCC2)ccc2c3n(c(=NC(=O)c4cnc(N)nc4)nc12)CCN3 ?
23%

Reported viability, T/C for MDA-MB-231 multicell spheroids, viability, given CCCS(=O)(=O)Nc1ccc(F)c(C(=O)c2c[nH]c3ncc(-c4ccc(Cl)cc4)cc23)c1F + Cc1nc(NC(=O)N2CCCC2C(N)=O)sc1-c1ccnc(C(C)(C)C(F)(F)F)c1 ?
57.5%

Reported viability, T/C for MDA-MB-231 multicell spheroids, viability, given CCN1CCN(Cc2ccc(Nc3ncc(F)c(-c4cc(F)c5nc(C)n(C(C)C)c5c4)n3)nc2)CC1 + CC(Nc1ccc2c(c1)OCCn1cc(N3C(=O)OCC3C(F)F)nc1-2)C(N)=O ?
39.1%

Reported viability, T/C for MDA-MB-231 multicell spheroids, viability, given CC1(C)CCC(CN2CCN(c3ccc(C(=O)NS(=O)(=O)c4ccc(NCC5CCOCC5)c([N+](=O)[O-])c4)c(Oc4cnc5[nH]ccc5c4)c3)CC2)=C(c2ccc(Cl)cc2)C1 + CC(Nc1ccc2c(c1)OCCn1cc(N3C(=O)OCC3C(F)F)nc1-2)C(N)=O ?
60.2%

Reported viability, T/C for MDA-MB-231 multicell spheroids, viability, given Cn1nccc1Nc1nccc(-c2ccn(C(CO)c3ccc(Cl)c(F)c3)c(=O)c2)n1 (stereo not given) + COc1c(OCCCN2CCOCC2)ccc2c3n(c(=NC(=O)c4cnc(N)nc4)nc12)CCN3 ?
12.7%
